assayed_system: T1, UNK ZnF1-3 (human, UniProt Q9C0B0 31-174)
T1 sequence: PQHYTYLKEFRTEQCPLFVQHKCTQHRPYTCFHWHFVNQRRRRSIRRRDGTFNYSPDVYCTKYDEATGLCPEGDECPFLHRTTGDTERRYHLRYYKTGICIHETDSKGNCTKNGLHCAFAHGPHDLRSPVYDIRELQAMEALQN
assay_notes: nsRBNS (natural sequence RNA bind-n-seq); RBNS binding buffer (assumed for nsRBNS): 25 mM Tris pH 7.5, 150 mM KCl, 3 mM MgCl2, 0.01% Triton X-100, 500 ug/ml BSA, 20 U/ml SUPERase-In, 4 C; UNK is unkempt and MSI1 is Musashi-1; names of the RNAs are library labels; protein concentration not given here; high values mean tight binding
Whole data set: some 24,000 sequences, median “enrichment r” near 0.99, cut for the highest 2% near 3.7. Shown is part of a subset that was picked to be rich in the highest values.
assay_endpoint: binding signal (enrichment R)
Give your result in enrichment R as a bare value.

In the examples that follow, each entry is paired with its recorded binding signal.
>>> number("chr4:95690885:95690886:+_ENSMUSG00000028572_ENSMUST00000156910|mus_mus|mus_mus_mus_hu_False|78_98 (ssRNA) RNA: GGGAGUUCUACAGUCCGACGAUCUUUAGAAAAUGUUAAUGUUAAAUCUAAAAUAUUGUAAUUUUAAUAUUUUAUUUUACCAGAAGUCACAGGCAAGCAGACACUACAAGAAUAUAUGAAAAUGAAACUCAACAAUAUAACUGUCAACAGAGGAUUGAGCAUCA")
3.29
>>> number("chr1:58468927:58468928:-_ENSMUSG00000026034_ENSMUST00000148330|mus_hu|FALSE|FALSE (ssRNA) RNA: GGGAGUUCUACAGUCCGACGAUCAAUUACUGAAAAAGAUGUUCAUUACCUUAGCUAUGUACUUAAUGAACCAAAUUACCCAAACAAAAUAAACAUGGCAAUAUAAAAAUGUUAAGAAUUUACAAAGCUGUACAAAAUAACUUACAACAGAGGAUUGAGCAUCA")
1.24
>>> number("chr5:121736274:121736275:+_ENSMUSG00000042744_ENSMUST00000119892|mus_mus|FALSE|FALSE (ssRNA) RNA: GGGAGUUCUACAGUCCGACGAUCCUGGUGAAUGCACAUGGCGCCAACAUGGUGCAGUAACUGGUUUAUGACUUCAUUUGUGCUAAUGGCCUCUUCUUUGGGCUCGGUGAUGAUAUGGCUGACACCCAGUCUCUGGCACACGUACAACAGAGGAUUGAGCAUCA")
0.813

**Query** Look up and report measured binding signal for this entry: chr6:41756983:41756984:+_ENSG00000214736_ENST00000398881|hu_mus|FALSE|FALSE (ssRNA) RNA: GGGAGUUCUACAGUCCGACGAUCAUCAAUGUCACUCAAGUUCCUGGCCAGCCAGACUCCCGCAGCAAAGAGUCCCAAAUUGAGGAUCAAGUUCCUCCGGAAGUCGUUUCGAUCGGUGGCGAAGCGGAAGACACCGCGGAGCCACAACAGAGGAUUGAGCAUCA
**Result** 1.55

**Query** Look up and report measured binding signal for this entry: 90994690_90994914_4067_CDS_ENSMUSG00000040687_ENSMUST00000111370|mouse|control|control (ssRNA) RNA: GGGAGUUCUACAGUCCGACGAUCGAGGUACCUGUCGAUCAUUUCCUGAGGACCCUGGUCCAUACCCAUUCCUUCUCUUUCCAACAUUACAGCAUCUAAGAAUGCAUCUUCCCAGAACUGCAUUUGGUCCCAUAAGGUAGAACGCAACAGAGGAUUGAGCAUCA
**Result** 0.917

**Query** Look up and report measured binding signal for this entry: chr6:117881578:117881579:-_ENSG00000047932_ENST00000052569|hu_mus|FALSE|FALSE (ssRNA) RNA: GGGAGUUCUACAGUCCGACGAUCCUUUAAUGUAGAAUAUGUCAUUUUUAUUUACAGGCUAAUUAAGAAUAUGAAACUCAACUAGAUAUAAUACAAUUAUCAUAAAUCCCCUUAUAUGUAAAUUAAUAUAUUUUUUGUUUUAAACAACAGAGGAUUGAGCAUCA
**Result** 4.33

**Query** Look up and report measured binding signal for this entry: chr16:94664741:94664742:+_ENSMUSG00000040785_ENSMUST00000117648|mus_hu|mus_mus_mus_hu_False|8_68 (ssRNA) RNA: GGGAGUUCUACAGUCCGACGAUCUGGUACUGAUCUUGGUAGCUGAUAUUCAGGAGAAAGGCUGGCCAAAGGUGUGUAUAUGCUGGUGUACUGGGGCAAACCUGGUAACACGUUUAUGUAUGCUGGCCGCUGGGUGAUGAUAUCCAACAGAGGAUUGAGCAUCA
**Result** 1.06
